Values compiled from ChEMBL document CHEMBL4014354.

# targetEntity: DNA polymerase alpha catalytic subunit (Homo sapiens, UniProt P09884)
# Sequence (P09884 whole entry): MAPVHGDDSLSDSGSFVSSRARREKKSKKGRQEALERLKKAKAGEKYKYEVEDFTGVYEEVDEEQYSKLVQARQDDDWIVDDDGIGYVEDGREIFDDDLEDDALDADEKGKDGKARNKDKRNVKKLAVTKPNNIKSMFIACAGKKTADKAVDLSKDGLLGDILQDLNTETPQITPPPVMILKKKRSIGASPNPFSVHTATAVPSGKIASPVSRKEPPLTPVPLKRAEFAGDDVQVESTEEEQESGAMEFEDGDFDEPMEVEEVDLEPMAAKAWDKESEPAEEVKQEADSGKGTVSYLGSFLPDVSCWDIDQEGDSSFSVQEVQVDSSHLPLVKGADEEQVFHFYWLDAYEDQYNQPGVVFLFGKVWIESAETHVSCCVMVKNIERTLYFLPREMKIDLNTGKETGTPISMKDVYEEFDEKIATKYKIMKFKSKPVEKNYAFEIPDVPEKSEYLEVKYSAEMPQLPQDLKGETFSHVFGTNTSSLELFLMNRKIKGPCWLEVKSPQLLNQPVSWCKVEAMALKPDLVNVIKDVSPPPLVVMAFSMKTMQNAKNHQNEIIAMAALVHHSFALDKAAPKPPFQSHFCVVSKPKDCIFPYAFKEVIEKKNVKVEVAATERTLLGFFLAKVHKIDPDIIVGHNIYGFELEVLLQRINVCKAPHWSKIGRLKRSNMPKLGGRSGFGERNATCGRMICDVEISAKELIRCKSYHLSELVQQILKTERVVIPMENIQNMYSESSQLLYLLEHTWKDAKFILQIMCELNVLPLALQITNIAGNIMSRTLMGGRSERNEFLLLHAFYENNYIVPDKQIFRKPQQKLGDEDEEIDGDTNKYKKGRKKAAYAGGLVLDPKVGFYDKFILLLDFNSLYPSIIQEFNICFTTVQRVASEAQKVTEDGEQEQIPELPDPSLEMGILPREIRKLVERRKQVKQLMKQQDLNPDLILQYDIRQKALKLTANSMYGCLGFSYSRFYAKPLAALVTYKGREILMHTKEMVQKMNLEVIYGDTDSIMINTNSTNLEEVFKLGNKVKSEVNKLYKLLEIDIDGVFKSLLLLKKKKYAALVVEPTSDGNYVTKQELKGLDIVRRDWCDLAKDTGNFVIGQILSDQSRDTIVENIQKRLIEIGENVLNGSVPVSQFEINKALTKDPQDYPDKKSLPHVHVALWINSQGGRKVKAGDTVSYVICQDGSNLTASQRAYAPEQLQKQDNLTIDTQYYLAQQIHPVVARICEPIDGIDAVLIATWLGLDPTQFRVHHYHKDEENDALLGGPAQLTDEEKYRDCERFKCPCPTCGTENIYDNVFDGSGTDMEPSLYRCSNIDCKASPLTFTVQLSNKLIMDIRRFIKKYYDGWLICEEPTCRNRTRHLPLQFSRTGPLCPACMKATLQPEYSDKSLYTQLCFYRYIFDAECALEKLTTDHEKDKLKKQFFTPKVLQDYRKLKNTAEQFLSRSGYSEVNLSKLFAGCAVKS
# assayExplanation: Inhibition of human DNA polymerase alpha using 5' end radiolabeled 24nt DNA/48nt DNA as primer/template after 5 mins by PAGE analysis
Items are presented alongside their recorded IC50.

{"molecule": "O=c1ccn([C@@H]2O[C@H](COP(=O)(O)OP(=O)(O)OP(=O)(O)O)C(O)C2(F)Cl)c(=O)[nH]1 (single isomer, unassigned)", "IC50": "20.2 µM"}

State the recorded IC50 for this entry: C[C@@]1(F)[C@H](O)[C@@H](COP(=O)(O)OP(=O)(O)OP(=O)(O)O)O[C@H]1n1ccc(=O)[nH]c1=O [GS-461203] > 100 µM

* * *

# assayExplanation: in vitro
# setupConditions: human, liver microsomes
# Description: Metabolic stability in human liver microsomes assessed as parent compound remaining at 1 uM at 60 mins by LC-MS/MS analysis
endpointLabel: remaining at 1 h, 1 µM (%)
The reply should be a number in %, with the unit left off.

Please review the entries below; each comes with its answer.
{"compound": "C[C@]12CC[C@H]3[C@@H](CCC4=CC(=O)CC[C@@]43C)[C@@H]1CC[C@@H]2O", "measurementUnit": "%", "remaining at 1 h, 1 µM": 6.3}
{"compound": "O=C(O)Cc1ccccc1Nc1c(Cl)cccc1Cl", "measurementUnit": "%", "remaining at 1 h, 1 µM": 1.2}

Now examine the next entry.
State the recorded remaining at 1 h, 1 µM for this entry: CC(C)OC(=O)[C@H](C)NP(=O)(OC[C@H]1O[C@@H](n2ccc(=O)[nH]c2=O)[C@@](F)(Cl)[C@@H]1O)Oc1ccccc1 (mixture of isomers) 4.2

* * *

Measured IC50 on Cytochrome P450 3A4 (Homo sapiens, UniProt P08684) follows.
Sequence (P08684 whole entry): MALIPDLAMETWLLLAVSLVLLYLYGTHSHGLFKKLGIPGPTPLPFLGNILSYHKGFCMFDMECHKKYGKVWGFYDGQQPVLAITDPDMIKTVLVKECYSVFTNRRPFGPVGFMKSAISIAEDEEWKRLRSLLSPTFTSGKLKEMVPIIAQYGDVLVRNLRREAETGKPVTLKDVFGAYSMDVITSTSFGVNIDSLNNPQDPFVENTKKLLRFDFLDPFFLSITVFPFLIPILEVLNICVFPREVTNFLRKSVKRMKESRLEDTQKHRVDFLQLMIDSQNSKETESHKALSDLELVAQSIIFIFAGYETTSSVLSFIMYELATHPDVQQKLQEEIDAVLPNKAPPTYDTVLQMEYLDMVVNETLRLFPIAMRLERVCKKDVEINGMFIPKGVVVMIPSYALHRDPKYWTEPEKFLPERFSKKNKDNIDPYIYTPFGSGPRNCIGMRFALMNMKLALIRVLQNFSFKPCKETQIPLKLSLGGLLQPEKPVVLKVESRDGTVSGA
The reply should be a number in µM, with the unit left off.

{"molecule": "CC(C)OC(=O)[C@H](C)NP(=O)(OC[C@H]1O[C@@H](n2ccc(=O)[nH]c2=O)[C@@](F)(Cl)[C@@H]1O)Oc1ccccc1 (mixture of isomers)", "observed": 6.8}

State the recorded IC50 for this entry: CC(C)OC(=O)[C@H](C)N[P@](=O)(OC[C@H]1O[C@@H](n2ccc(=O)[nH]c2=O)[C@](C)(F)[C@@H]1O)Oc1ccccc1 [SOFOSBUVIR] 8.4

* * *

# System: cytochrome c oxidase subunit 2 DNA (mitochondrial DNA) levels
# assayExplanation: in vitro
# setupConditions: human, HepG2 cells
endpointLabel: inhibition at 14 days, 10 µM

Please review the entries below; each comes with its answer.
{"molecule": "CC(C)OC(=O)[C@H](C)NP(=O)(OC[C@H]1O[C@@H](n2ccc(=O)[nH]c2=O)[C@@](F)(Cl)[C@@H]1O)Oc1ccccc1 (mixture of isomers)", "targetEntity": "cytochrome c oxidase subunit 2 DNA (mitochondrial DNA) levels", "inhibition at 14 days, 10 µM": "< 1%"}
{"molecule": "Nc1ccn([C@H]2CC[C@@H](CO)O2)c(=O)n1", "targetEntity": "cytochrome c oxidase subunit 2 DNA (mitochondrial DNA) levels", "inhibition at 14 days, 10 µM": "96%"}
{"molecule": "CC(C)OC(=O)[C@H](C)N[P@](=O)(OC[C@H]1O[C@@H](n2ccc(=O)[nH]c2=O)[C@](C)(F)[C@@H]1O)Oc1ccccc1", "targetEntity": "cytochrome c oxidase subunit 2 DNA (mitochondrial DNA) levels", "inhibition at 14 days, 10 µM": "< 1%"}

State the recorded inhibition at 14 days, 10 µM for this entry: `O=c1ccn([C@@H]2O[C@H](CO)[C@@H](O)[C@]2(F)Cl)c(=O)[nH]1` < 1%

* * *

# Tested on: cytochrome c oxidase subunit 2 DNA (mitochondrial DNA) levels
# assayExplanation: Mitochondrial toxicity in human HepG2 cells assessed as inhibition of cytochrome c oxidase subunit 2 DNA levels at 25 uM measured on day 14 by RT-PCR method relative to nuclear beta-actin DNA levels
# Assay type: cell-based
endpointLabel: inhibition at 14 days, 25 µM

State the recorded inhibition at 14 days, 25 µM for this entry: `CC(C)OC(=O)[C@H](C)N[P@](=O)(OC[C@H]1O[C@@H](n2ccc(=O)[nH]c2=O)[C@](C)(F)[C@@H]1O)Oc1ccccc1` < 1%

* * *

Items are presented alongside their recorded CC50 at 72 h.
# assayExplanation: Cytotoxicity against African green monkey Vero cells assessed as inhibition of cell proliferation after 3 days by MTT assay
# Assay type: cell-based
# setupConditions: chlorocebus sabaeus

State the recorded CC50 at 72 h for this entry: `Nc1nc2c(ncn2[C@@H]2O[C@H](CO)[C@@H](O)[C@]2(F)Cl)c(=O)[nH]1` > 100 µM

* * *

# assayExplanation: Cytotoxicity against human PBMC assessed as inhibition of cell proliferation after 5 days by MTT assay
# Type: cell-based
endpointLabel: CC50 at 120 h

{"compound": "CC(C)OC(=O)[C@H](C)NP(=O)(OC[C@H]1O[C@@H](n2ccc(=O)[nH]c2=O)[C@@](F)(Cl)[C@@H]1O)Oc1ccccc1 (mixture of isomers)", "CC50 at 120 h": "> 100 µM"}
{"compound": "CC(C)OC(=O)[C@H](C)N[P@](=O)(OC[C@H]1O[C@@H](n2ccc(=O)[nH]c2=O)[C@](C)(F)[C@@H]1O)Oc1ccccc1", "CC50 at 120 h": "> 100 µM"}
{"compound": "Nc1ccn([C@@H]2O[C@H](CO)[C@@H](O)[C@]2(F)Cl)c(=O)n1", "CC50 at 120 h": "12 µM"}
{"compound": "Nc1ncnc2c1c(F)cn2[C@@H]1O[C@H](CO)C(O)C1(F)Cl (single isomer, unassigned)", "CC50 at 120 h": "82.6 µM"}
{"compound": "Nc1ncnc2c1c(I)cn2[C@@H]1O[C@H](CO)C(O)C1(F)Cl (single isomer, unassigned)", "CC50 at 120 h": "6.6 µM"}
{"compound": "CC(C)OC(=O)[C@H](C)NP(=O)(OC[C@H]1O[C@@H](n2cc(F)c3c(N)ncnc32)C(F)(Cl)C1O)Oc1ccccc1 (single isomer, unassigned)", "CC50 at 120 h": "99.7 µM"}

State the recorded CC50 at 120 h for this entry: `C[C@@]1(O)[C@H](O)[C@@H](CO)O[C@H]1n1ccc(N)nc1=O` > 100 µM

State the recorded CC50 at 120 h for this entry: CC(C)OC(=O)[C@H](C)NP(=O)(OC[C@H]1O[C@@H](n2ccc3c(N)ncnc32)C(F)(Cl)C1O)Oc1ccccc1 (single isomer, unassigned) > 100 µM

State the recorded CC50 at 120 h for this entry: `Nc1nc2c(ncn2[C@@H]2O[C@H](CO)[C@@H](O)[C@]2(F)Cl)c(=O)[nH]1` > 100 µM

State the recorded CC50 at 120 h for this entry: CC(C)OC(=O)[C@H](C)NP(=O)(OC[C@H]1O[C@@H](n2ccc(N)nc2=O)[C@@](F)(Cl)[C@@H]1O)Oc1ccccc1 (stereo not given in full) > 100 µM

State the recorded CC50 at 120 h for this entry: CC(C)OC(=O)[C@H](C)NP(=O)(OC[C@H]1O[C@@H](n2cnc3c(N)ncnc32)C(F)(Cl)C1O)Oc1ccccc1 (single isomer, unassigned) 84.8 µM

State the recorded CC50 at 120 h for this entry: CC(C)OC(=O)[C@H](C)NP(=O)(OC[C@H]1O[C@@H](n2cc(I)c3c(N)ncnc32)C(F)(Cl)C1O)Oc1ccccc1 (single isomer, unassigned) > 100 µM

* * *

Items are presented alongside their recorded microsomal CLint at 1 µM.
# assayExplanation: in vitro
# setupConditions: human, liver microsomes
# Description: Clearance in human liver microsomes at 1 uM by LC-MS/MS analysis
Answers without a unit are incomplete; give the number and then its unit.

Please review the entries below; each comes with its answer.
{"compound": "O=C(O)Cc1ccccc1Nc1c(Cl)cccc1Cl", "endpointLabel": "microsomal CLint at 1 µM", "observed": "156 µL/min/mg"}
{"compound": "CC(C)OC(=O)[C@H](C)NP(=O)(OC[C@H]1O[C@@H](n2ccc(=O)[nH]c2=O)[C@@](F)(Cl)[C@@H]1O)Oc1ccccc1 (mixture of isomers)", "endpointLabel": "microsomal CLint at 1 µM", "observed": "120 µL/min/mg"}

State the recorded microsomal CLint at 1 µM for this entry: `C[C@]12CC[C@H]3[C@@H](CCC4=CC(=O)CC[C@@]43C)[C@@H]1CC[C@@H]2O` 92 µL/min/mg

* * *

# assayExplanation: Cytotoxicity against African green monkey Vero cells assessed as inhibition of cell proliferation after 3 days by MTT assay
# Format: cell-based
# setupConditions: chlorocebus sabaeus
endpointLabel: CC50 at 72 h

Please review the entries below; each comes with its answer.
{"compound": "Nc1ncnc2c1c(I)cn2[C@@H]1O[C@H](CO)C(O)C1(F)Cl (single isomer, unassigned)", "CC50 at 72 h": "11.5 µM"}
{"compound": "CC(C)OC(=O)[C@H](C)NP(=O)(OC[C@H]1O[C@@H](n2ccc(=O)[nH]c2=O)[C@@](F)(Cl)[C@@H]1O)Oc1ccccc1 (mixture of isomers)", "CC50 at 72 h": "> 100 µM"}
{"compound": "CC(C)OC(=O)[C@H](C)NP(=O)(OC[C@H]1O[C@@H](n2cnc3c(=O)[nH]c(N)nc32)[C@@](F)(Cl)[C@@H]1O)Oc1ccccc1 (some centres undefined)", "CC50 at 72 h": "> 100 µM"}

Now examine the next entry.
State the recorded CC50 at 72 h for this entry: Nc1ncnc2c1c(F)cn2[C@@H]1O[C@H](CO)C(O)C1(F)Cl (single isomer, unassigned) 42.4 µM
